Values were extracted from patent US20060074243A1.

Catalogue of Ki readings, one per entry.
measuredOn: Human recombinant MMP-1 (Homo sapiens, UniProt P03956)
Construct: made in house; host or cells: MMP-1-transfected HT-1080 cells (spent media)
Sequence (P03956 100-469): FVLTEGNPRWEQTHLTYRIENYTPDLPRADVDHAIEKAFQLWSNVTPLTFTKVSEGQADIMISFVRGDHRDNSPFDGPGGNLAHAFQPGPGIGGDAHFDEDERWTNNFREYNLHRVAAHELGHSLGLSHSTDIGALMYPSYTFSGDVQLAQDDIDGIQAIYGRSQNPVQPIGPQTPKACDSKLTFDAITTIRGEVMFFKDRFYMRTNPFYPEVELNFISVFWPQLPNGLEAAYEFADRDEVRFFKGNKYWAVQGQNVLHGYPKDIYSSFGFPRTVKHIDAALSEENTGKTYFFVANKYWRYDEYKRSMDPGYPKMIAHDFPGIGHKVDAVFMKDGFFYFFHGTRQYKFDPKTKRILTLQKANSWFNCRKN
assayName: In vitro MMP inhibition analysis (fluorogenic peptide substrate cleavage), Ki
Format: biochemical
details: Table 1
readout: Ki (µM)

moleculeSmiles	measuredOn	readout	relationSign	reportedMeasurement
O=C(NO)C1(S(=O)(=O)c2ccc(-c3ccc(CCC(F)(F)C(F)(F)F)cn3)cc2)CCN(C2CC2)CC1	Human recombinant MMP-1 (Homo sapiens, UniProt P03956)	Ki	=	7.88
COCCN1CCC(C(=O)NO)(S(=O)(=O)c2ccc(-c3ccc(CCCC(F)(F)F)cc3)cc2)CC1	Human recombinant MMP-1 (Homo sapiens, UniProt P03956)	Ki	=	6.87
O=C(NO)C1(S(=O)(=O)c2ccc(-c3ccc(OC(F)(F)C(F)F)cc3)cc2)CCOCC1	Human recombinant MMP-1 (Homo sapiens, UniProt P03956)	Ki	=	0.231
CC(F)(F)CCc1ccc(-c2ccc(S(=O)(=O)C3(C(=O)NO)CCN(C4CC4)CC3)cc2)cc1	Human recombinant MMP-1 (Homo sapiens, UniProt P03956)	Ki	=	2.17
COCCN1CCC(C(=O)NO)(S(=O)(=O)c2ccc(-c3ccc(CCC(C)(F)F)cc3)cc2)CC1	Human recombinant MMP-1 (Homo sapiens, UniProt P03956)	Ki	=	1.75
CC(F)(F)CCc1cnc(-c2ccc(S(=O)(=O)C3(C(=O)NO)CCN(C4CC4)CC3)cc2)cn1	Human recombinant MMP-1 (Homo sapiens, UniProt P03956)	Ki	>	10
O=C(NO)C1(S(=O)(=O)c2ccc(-c3cnc(CCC4CC4)cn3)cc2)CCOCC1	Human recombinant MMP-1 (Homo sapiens, UniProt P03956)	Ki	>	10
